The measurements presented in this section are drawn from ChEMBL document CHEMBL5352394.

# test_system: Dual specificity mitogen-activated protein kinase kinase 1 (Homo sapiens)
# run_description: Inhibition of MEK1 phosphorylation in human HeLa cells at 10 uM preincubated for 1 hr and followed by EGF stimulation for 30 mins by Western blot analysis
# Assay type: cell-based
Active and inactive are the calls of the source. The calls are words filed in the database; no cut-off is given here.
measurement_name: inhibition

A selection of reference data follows.
>  <compound>
CC1(F)N=C(c2ccc(Cl)cc2)SC1(F)c1ccc(Cl)cc1 (stereo not drawn)

>  <inhibition>
Active

$$$$
>  <compound>
FC1(F)N=C(c2ncccn2)SC1(F)c1ccc(Cl)cc1 (stereo not drawn)

>  <inhibition>
Active

$$$$
>  <compound>
FC1(F)N=C(c2ccccn2)SC1(F)c1ccc(Cl)cc1 (stereo not drawn)

>  <inhibition>
Active

$$$$
>  <compound>
FC1(F)N=C(c2ccc(Cl)cn2)SC1(F)c1ccc(Cl)cc1 (stereo not drawn)

>  <inhibition>
inactive

$$$$
>  <compound>
Cc1ccc(C2(F)SC(c3ccc(Cl)cc3)=NC2(F)F)cc1 (stereo not drawn)

>  <inhibition>
Active

$$$$

Ask | Please report inhibition for the following compound: FC1(F)SC(c2ccc(Cl)cc2)=NC1(F)c1ccc(Cl)cc1 (stereo not drawn)
Reply | inactive

Ask | Please report inhibition for the following compound: FC1(F)N=C(c2cnccn2)SC1(F)c1ccc(Cl)cc1 (stereo not drawn)
Reply | inactive

Ask | Please report inhibition for the following compound: Cc1ccc(C2(F)SC(c3ccccc3)=NC2(F)F)cc1 (stereo not drawn)
Reply | inactive

====

# test_system: RAF proto-oncogene serine/threonine-protein kinase (Homo sapiens) (UniProt P04049)
# Sequence (P04049 whole entry): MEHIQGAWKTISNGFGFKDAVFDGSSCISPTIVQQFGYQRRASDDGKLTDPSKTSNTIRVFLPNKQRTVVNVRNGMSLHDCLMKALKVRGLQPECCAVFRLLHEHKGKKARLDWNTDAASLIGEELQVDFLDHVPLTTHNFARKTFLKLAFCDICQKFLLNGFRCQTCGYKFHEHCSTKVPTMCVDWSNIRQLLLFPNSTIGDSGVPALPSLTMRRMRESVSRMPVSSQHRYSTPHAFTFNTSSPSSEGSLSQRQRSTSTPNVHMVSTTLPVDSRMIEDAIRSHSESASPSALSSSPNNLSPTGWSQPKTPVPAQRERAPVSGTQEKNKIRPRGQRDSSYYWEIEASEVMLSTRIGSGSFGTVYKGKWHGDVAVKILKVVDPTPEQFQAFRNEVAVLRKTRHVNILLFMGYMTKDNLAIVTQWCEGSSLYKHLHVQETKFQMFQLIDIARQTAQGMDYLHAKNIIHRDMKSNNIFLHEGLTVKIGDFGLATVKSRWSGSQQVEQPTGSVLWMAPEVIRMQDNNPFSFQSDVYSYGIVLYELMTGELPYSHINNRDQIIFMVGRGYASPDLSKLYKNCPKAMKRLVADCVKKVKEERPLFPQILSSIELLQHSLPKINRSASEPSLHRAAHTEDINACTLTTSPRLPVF
# run_description: Inhibition of C-RAF phosphorylation at Ser 338 residue in human HeLa cells at 10 uM preincubated with compound for 1 hr and followed by EGF stimulation for 30 mins by Western blot analysis
# Format: cell-based
Active and inactive are the calls of the source. No cut-off for these calls is given here.
Please state which outcome applies, choosing from active, inactive

These recorded examples may help you get a feel for the data.
>  <compound>
FC1(F)N=C(c2ccccn2)SC1(F)c1ccccc1 (stereo unspecified)

>  <assigned_category>
active

$$$$
>  <compound>
FC1(F)SC(c2ccc(Cl)cc2)=NC1(F)c1ccc(Cl)cc1 (stereo unspecified)

>  <assigned_category>
inactive

$$$$
>  <compound>
FC1(F)N=C(c2cnccn2)SC1(F)c1ccc(Cl)cc1 (stereo unspecified)

>  <assigned_category>
inactive

$$$$
>  <compound>
Cc1ccc(C2(F)SC(c3ccccc3)=NC2(F)F)cc1 (stereo unspecified)

>  <assigned_category>
inactive

$$$$
>  <compound>
CC1(F)N=C(c2ccc(Cl)cc2)SC1(F)c1ccc(Cl)cc1 (stereo unspecified)

>  <assigned_category>
inactive

$$$$

Below: the item to evaluate.
Ask | Hey, what did the test say about O=C(c1ccccc1)c1ccc(C2=NC(F)(F)C(F)(c3ccc(Cl)cc3)S2)cc1 (stereo unspecified) ?
Reply | active
